- Test system: genotype 1b (Con-1) HCV replicon in Huh-7 cells
- test-summary: HCV replicon luciferase assay
- Assay type: cell-based
- condition-context: Hepatitis C virus, Huh-7, 72 h, 1b replicon, Huh-7, Renilla luciferase, 3 days incubation
API: label(entry) gives fulfilled if the entry's EC50 is strictly smaller than 20 nM; on equality or larger values it gives not fulfilled.

Consider the molecule CNC(=O)c1c(-c2ccc(F)cc2)oc2ccc(-c3cc(C(=O)NC4(c5ncccn5)CC(O)C4)cc(F)c3C)c(F)c12 (single isomer, unassigned) . Is its EC50 strictly less than 20 nM?
not fulfilled

Consider the molecule CCCc1cc2oc(-c3ccc(F)cc3)c(C(=O)NC)c2cc1-c1cc(C(=O)NC2(c3ncccn3)CC(OC(F)(F)F)C2)c(OC)cc1C (single isomer, unassigned) [Example 50a] . Is its EC50 strictly less than 20 nM?
not fulfilled

Consider the molecule CCCc1cc2oc(-c3ccc(F)cc3)c(C(=O)NC)c2cc1-c1cc(C(=O)NC2(C)CC(OC(F)F)C2)c(OC)cc1C (single isomer, unassigned) [Example 57a] . Is its EC50 strictly less than 20 nM?
not fulfilled

Consider the molecule CNC(=O)c1c(-c2ccc(F)cc2)oc2ccc(-c3cc(C(=O)NC4(c5ncccn5)CC(F)(F)C4)cc(F)c3C)c(F)c12 . Is its EC50 strictly less than 20 nM?
fulfilled

Consider the molecule CNC(=O)c1c(-c2ccc(F)cc2)oc2ccc(-c3cc(C(=O)NC4(c5ncccn5)CC(F)(F)C4)c(OC)cc3C)c(F)c12 . Is its EC50 strictly less than 20 nM?
fulfilled

Consider the molecule CNC(=O)c1c(-c2ccc(F)cc2)oc2cc(NCC(F)(F)F)c(-c3ccc(OC)c(C(=O)NC4(c5ncccn5)CC(OC(F)F)C4)c3)cc12 (single isomer, unassigned) [Example 64a] . Is its EC50 strictly less than 20 nM?
fulfilled

Consider the molecule CCN(c1cc2oc(-c3ccc(F)cc3)c(C(=O)NC)c2c(F)c1-c1ccc(OC)c(C(=O)NC2(c3ncccn3)CC(F)C2)c1)S(C)(=O)=O (centres unmarked) . Is its EC50 strictly less than 20 nM?
fulfilled

---

- target-or-system: NS5B proteins of HCV genotype 1b (Con1) (Hepatitis C virus genotype 1b, UniProt Q9WMX2)
- Construct: Each untagged protein was expressed with an 18 amino acid C-terminal truncation to enhance the solubility
- Sequence (Q9WMX2 2420-2992): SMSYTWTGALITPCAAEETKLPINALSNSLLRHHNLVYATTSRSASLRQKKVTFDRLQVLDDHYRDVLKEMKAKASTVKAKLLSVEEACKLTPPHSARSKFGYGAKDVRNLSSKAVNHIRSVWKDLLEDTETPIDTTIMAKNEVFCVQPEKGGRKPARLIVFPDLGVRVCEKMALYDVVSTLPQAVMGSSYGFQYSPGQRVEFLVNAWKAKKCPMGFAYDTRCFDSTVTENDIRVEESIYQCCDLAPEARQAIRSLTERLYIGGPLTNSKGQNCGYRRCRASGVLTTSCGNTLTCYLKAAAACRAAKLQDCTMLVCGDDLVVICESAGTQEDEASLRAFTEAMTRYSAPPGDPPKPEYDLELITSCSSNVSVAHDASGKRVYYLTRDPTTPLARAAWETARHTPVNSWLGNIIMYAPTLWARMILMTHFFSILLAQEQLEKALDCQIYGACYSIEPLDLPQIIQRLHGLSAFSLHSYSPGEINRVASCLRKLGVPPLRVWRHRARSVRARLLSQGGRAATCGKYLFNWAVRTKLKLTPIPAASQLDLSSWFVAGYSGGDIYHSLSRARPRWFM
- test-summary: HCV NS5B RdRp enzyme assay
- condition-context: 1b enzyme
readout: log10(IC50) (log10 of the value in nM)
Log10 applied to IC50; unit prior to transform: nM.

Tell me its log10(IC50) given CNC(=O)c1c(-c2ccc(F)cc2)oc2ccc(-c3cc(C(=O)NC4(c5ncccn5)CC(F)C4)ccc3C)c(F)c12 (stereo not drawn) [Example 16] as the entry.
1.48

Tell me its log10(IC50) given CCCc1cc2oc(-c3ccc(F)cc3)c(C(=O)NC)c2cc1-c1cc(C(=O)NC2(C)CC(OC(F)F)C2)c(OC)cc1C (single isomer, unassigned) [Example 57a] as the entry.
1.00

Tell me its log10(IC50) given CNC(=O)c1c(-c2ccc(F)cc2)oc2ccc(-c3cc(C(=O)NC4(c5ncccn5)CC(F)(F)C4)c(OC)cc3C)c(F)c12 [Example 18] as the entry.
2.15

Tell me its log10(IC50) given CNC(=O)c1c(-c2ccc(F)cc2)oc2ccc(-c3cc(C(=O)NC4(c5ncccn5)CC(O)C4)c(OC)cc3C)c(F)c12 (single isomer, unassigned) [Example 12a] as the entry.
2.88

Tell me its log10(IC50) given CCCc1cc2oc(-c3ccc(F)cc3)c(C(=O)NC)c2cc1-c1ccc(OC)c(C(=O)NC2(c3ncccn3)CC(OC(F)(F)F)C2)c1 (single isomer, unassigned) [Example 51a] as the entry.
1.70

Tell me its log10(IC50) given CNC(=O)c1c(-c2ccc(F)cc2)oc2ccc(-c3cc(C(=O)NC4(c5ncccn5)CC(O)C4)c(OC)cc3C)c(F)c12 (single isomer, unassigned) [Example 12b] as the entry.
2.32

Where do the numbers come from? From patent US11161837B2.
